System: 22RV1
Assay Comment: Cell proliferation assay (CellTiterGlo, 72 h), 22RV1
Type: cell-based
Condition Set: 22Rv1 cells, 72 h compound treatment, CellTiterGlo; read-out: 22Rv1 ATP average IC50
pIC50: −log10 of the molar value.
Readout Type: pIC50

Cc1sc2c(c1C)C(c1ccc(-c3nc(CN)cs3)cc1)=N[C@@H](CC(=O)OC(C)(C)C)c1nnc(C)n1-2 [Compound 9074]: 6.70 to 7.30

* * *

System: 22RV1
Assay Comment: Cell proliferation assay (CellTiterGlo, 72 h), 22RV1
Type: cell-based
Condition Set: Homo sapiens, 22Rv1, 72 h; read-out: 22Rv1 ATP average IC50
Protocol: All incubations were performed at 37° C. in a humidified carbon dioxide incubator. The cells were seeded in a 96-well plate (white wall/transparent bottom) at 5000 cells/well and cultured overnight. On day 2, A stock solution of the compound at a concentration of 10 mM was subjected to an 8-fold serial dilution to obtain 8 concentration points. 2 μL of the compound solution at each concentration point was added to 98 μL of fresh medium, and the mixture was mixed homogeneously. […]
Readout Type: IC50

COc1ccc2c(c1)C(c1ccc(/C=C/CN)cc1)=N[C@@H](CC(=O)OC(C)(C)C)c1nnc(C)n1-2: 50 to 200 nM
COc1ccc2c(c1)C(c1ccc3c(c1)NC(=O)CC3)=N[C@@H](CC(=O)OC(C)(C)C)c1nnc(C)n1-2: > 500 nM
Cc1sc2c(c1C)C(c1ccc(C#CCN)cc1)=N[C@@H](CC(=O)N(C)O)c1nnc(C)n1-2: 200 to 500 nM
COc1ccc2c(c1)C(c1ccc(C#CCNO)cc1)=N[C@@H](CC(=O)OC(C)(C)C)c1nnc(C)n1-2: < 50 nM

* * *

IC50 by entry:
Tested on: 22RV1
Assay Comment: Cell proliferation assay (CellTiterGlo, 72 h), 22RV1
Assay type: cell-based
Condition Set: Homo sapiens, 22Rv1, 72 h; read-out: 22Rv1 ATP average IC50
Readout Type: IC50

Cc1sc2c(c1C)C(c1ccc(C#CCN)cc1)=N[C@@H](CC(=O)OC1(C)CC1)c1nnc(C)n1-2: < 50 nM
COc1ccc2c(c1)C(c1ccc(/C=C/CNO)c(F)c1)=N[C@@H](CC(=O)O)c1nnc(C)n1-2: > 500 nM
COc1ccc2c(c1)C(c1ccc(/C=C/C=N\O)cc1)=N[C@@H](CC(=O)OC(C)(C)C)c1nnc(C)n1-2: > 500 nM
COc1ccc2c(c1)C(c1ccc(/C=C/CON)cc1)=N[C@@H](CC(=O)OC(C)(C)C)c1nnc(C)n1-2: > 500 nM

* * *

Target Or System: BRD4 (Homo sapiens, UniProt O60885)
Assay Comment: BRD4 degradation assay (Western-blot / Simple Western) in LNCap
Type: cell-based
Condition Set: LNCap cells, target content as percentage of control (DMSO = 100%)
Readout Type: BRD4 degradation of LNCap (200 nM 5 h)

COc1ccc2c(c1)C(c1ccc(C#CCNO)cc1)=N[C@@H](CC(=O)OC(C)(C)C)c1nnc(C)n1-2: A (A<20%)
COc1ccc2c(c1)C(c1ccc(/C=C/CN)cc1)=N[C@@H](Cc1nccs1)c1nnc(C)n1-2: B (20%<B<50%)
COc1ccc2c(c1)C(c1ccc(/C=C/CNO)cc1)=N[C@@H](Cc1nccs1)c1nnc(C)n1-2.Cl: A (A<20%)
COc1ccc2c(c1)C(c1ccc(/C=C/CNO)cc1)=N[C@@H](CC(=O)OC1(C)CC1)c1nnc(C)n1-2: A (A<20%)
COc1ccc2c(c1)C(c1ccc(/C=C/CN)cc1)=N[C@@H](CC(=O)OC(C)(C)C)c1nnc(C)n1-2: A (A<20%)
COc1ccc2c(c1)C(c1ccc(C#CCN)cc1)=N[C@@H](Cc1nccs1)c1nnc(C)n1-2: A (A<20%)
COc1ccc2c(c1)C(c1ccc(C#CCNO)cc1)=N[C@@H](Cc1nccs1)c1nnc(C)n1-2.Cl: B (20%<B<50%)
COc1ccc2c(c1)C(c1ccc(/C=C/CNOC(C)=O)cc1)=N[C@@H](CC(=O)OC(C)(C)C)c1nnc(C)n1-2: A (A<20%)
